system: Salmonella enterica typhimurium; experiment: growth AUC normalised to DMSO control (fraction of control); higher = less growth inhibition, active = hit call of the paper; details: 20 µM
Counter-ions that a name gives are not always drawn.
measured_parameter: growth AUC normalised to DMSO control
Respond using a number only.

Any idea what growth AUC normalised to DMSO control was measured for CC(C)CC(N(C)C)C1(c2ccc(Cl)cc2)CCC1 (stereo not given) [Sibutramine hydrochloride] ?
1

Request: CC(C)(C)NCC(O)c1cc(Cl)c(N)c(Cl)c1 (stereo not given) [Clenbuterol hydrochloride]
0.958

Request: CC(O)(CS(=O)(=O)c1ccc(F)cc1)C(=O)Nc1ccc(C#N)c(C(F)(F)F)c1 (stereo not given) [Bicalutamide]
1.05

Request: CNC(C)(C)Cc1ccccc1 [Mephentermine hemisulfate]
1.03

Request: CCN(C(C)=O)c1cccc(-c2ccnc3c(C#N)cnn23)c1
0.978

====

Please provide measured growth AUC normalised to DMSO control for the entries that follow.
system: Salmonella enterica typhimurium; assay: growth AUC normalised to DMSO control (fraction of control); higher = less growth inhibition, active = hit call of the paper; details: 20 µM
Where a name gives a salt, the structure may show the parent alone.
Respond using a number only.

Enter reported growth AUC normalised to DMSO control observed with Salmonella enterica typhimurium for COc1ccc(CN2CCNCC2)c(OC)c1OC [Trimetazidine dihydrochloride]
0.989

Request: CC(C)(N)Cc1ccccc1 [Phentermine hydrochloride]
1.02

Request: C[C@H](N)[C@H](O)c1ccc(O)c(O)c1 [Levonordefrin]
1.01

Request: OC(c1ccccc1)(c1ccccc1)C1CCNCC1 [Azacyclonol]
0.999

Request: NCC(CC(=O)O)c1ccc(Cl)cc1 (stereo not drawn) [Baclofen]
1.01

Request: O=c1[nH]c2ccccc2n1C1CCN(CCCC(c2ccc(F)cc2)c2ccc(F)cc2)CC1 [Pimozide]
0.998

Request: CC(C)C[C@H]1C(=O)N2CCC[C@H]2[C@]2(O)O[C@](NC(=O)[C@@H]3C=C4c5cccc6[nH]c(Br)c(c56)C[C@H]4N(C)C3)(C(C)C)C(=O)N12 [Bromocryptine mesylate]
1

Request: CN1C[C@H](C(=O)N[C@]2(C)O[C@@]3(O)[C@@H]4CCCN4C(=O)[C@H](Cc4ccccc4)N3C2=O)C[C@@H]2c3cccc4[nH]cc(c34)C[C@H]21 [Dihydroergotamine tartrate]
0.978

====

tested on: Haemophilus parainfluenzae; assay: growth AUC normalised to DMSO control (fraction of control); higher = less growth inhibition, active = hit call of the paper; conditions: 20 µM
Structures can show the parent of a compound that is named as a salt.
Hi! Could you answer with just one of these? true for active, false for inactive

Please state the recorded outcome for this compound: CN1CCN(C(c2ccccc2)c2ccc(Cl)cc2)CC1 (stereo not given) [Chlorcyclizine hydrochloride]
false

Request: CCNCC(O)c1cccc(O)c1 (stereo not given) [Etilefrine hydrochloride]
false

Request: C[C@]12CC[C@H]3[C@@H](CCC4=CC(=O)CC[C@@H]43)[C@@H]1CC[C@@H]2O
false

Request: O=C(Cn1ccnc1[N+](=O)[O-])NCCO
false

Request: CCCOc1ccc(C(=O)OCCN(CC)CC)cc1N [Proparacaine hydrochloride]
false

Request: CN(C)CCN(Cc1cccs1)c1ccccn1 [Methapyrilene hydrochloride]
false

Request: CS(=O)(=O)Nc1ccc([N+](=O)[O-])cc1Oc1ccccc1 [Nimesulide]
false

Request: CNCCC(Oc1ccc(C(F)(F)F)cc1)c1ccccc1 (stereo not given) [Fluoxetine hydrochloride]
false

Request: CO[C@H]1/C=C/O[C@@]2(C)Oc3c(C)c(O)c4c(O)c(c(/C=N/N5CCN(C6CCCC6)CC5)c(O)c4c3C2=O)NC(=O)/C(C)=C\C=C\[C@H](C)[C@H](O)[C@@H](C)[C@@H](O)[C@@H](C)[C@H](OC(C)=O)[C@@H]1C
true

Request: Cc1onc(-c2c(Cl)cccc2Cl)c1C(=O)N[C@@H]1C(=O)N2[C@@H]1SC(C)(C)[C@@H]2C(=O)O [Dicloxacillin sodium salt hydrate]
false

Request: CC(=O)O[C@H]1C[C@@]2(C)[C@@H](C[C@@H](O)[C@H]3[C@@]4(C)CC[C@@H](O)[C@@H](C)[C@@H]4CC[C@@]32C)/C1=C(\CCC=C(C)C)C(=O)O [Fusidic acid sodium salt]
true

Request: C[C@]12CCC(=O)C=C1CC[C@@H]1[C@@H]2[C@@H](O)C[C@@]2(C)[C@H]1CC[C@]2(O)C(=O)CO [Hydrocortisone]
false

Request: CCc1cccc(CC)c1NC(=O)CN(CC(=O)O)CC(=O)O
false

Request: C#CCN(C)[C@H](C)Cc1ccccc1 [Selegiline hydrochloride]
false

Request: CC(=O)OCC(=O)[C@@]12OC3(CCCC3)O[C@@H]1C[C@H]1[C@@H]3CCC4=CC(=O)C=C[C@]4(C)[C@@]3(F)[C@@H](O)C[C@@]12C [Amcinonide]
false

Request: C=C1c2c(Cl)ccc(O)c2C(O)=C2C(=O)[C@]3(O)C(O)=C(C(N)=O)C(=O)[C@@H](N(C)C)[C@@H]3[C@@H](O)[C@H]12.O=C(O)c1cc(S(=O)(=O)O)ccc1O [Meclocycline sulfosalicylate]
true

Request: CCN(CCO)CCCC(C)Nc1ccnc2cc(Cl)ccc12 (stereo not given) [Hydroxychloroquine sulfate]
false

Request: S=C(NC1CCCCC1)N1CCC(c2cnc[nH]2)CC1 [Thioperamide maleate]
false

Request: Nc1nc(NC2CC2)c2ncn([C@H]3C=C[C@@H](CO)C3)c2n1 [Abacavir sulfate]
false

Request: CCC(Cc1c(I)cc(I)c(N)c1I)C(=O)O (stereo not given)
false

Request: C[C@@H](O[C@H]1OCCN(Cc2n[nH]c(=O)[nH]2)[C@H]1c1ccc(F)cc1)c1cc(C(F)(F)F)cc(C(F)(F)F)c1 [Aprepitant]
false

Request: C[C@]12C=CC(=O)C=C1CC[C@H]1[C@@H]3C[C@@H](O)[C@](O)(C(=O)CO)[C@@]3(C)C[C@H](O)[C@@]12F
false

Request: CCC[C@@H]1C[C@@H](C(=O)N[C@@H]([C@H]2O[C@H](SC)[C@H](O)[C@@H](O)[C@H]2O)[C@H](C)Cl)N(C)C1 [Clindamycin hydrochloride]
true

Request: Cc1cccc(C)c1NC(=O)CN1CCN(CCCC(c2ccc(F)cc2)c2ccc(F)cc2)CC1
false

Request: Nc1ccc(S(N)(=O)=O)cc1 [Sulfanilamide]
false

Request: CN1Cc2c(N)cccc2C(c2ccccc2)C1 (stereo not given) [Nomifensine maleate]
false

Request: C#CCN(C)CCCOc1ccc(Cl)cc1Cl [Clorgyline hydrochloride]
false

Request: Cc1cc(=O)oc2cc(O)ccc12
false

Request: COC(=O)Nc1nc2cc(C(=O)c3cccs3)ccc2[nH]1
false

Request: Clc1ccc(C(Cn2ccnc2)OCc2c(Cl)cccc2Cl)c(Cl)c1 (stereo not given)
false

====

tested on: S. enterica typhimurium WT; assay: growth AUC normalised to DMSO control (median) (fraction of control); higher = less growth inhibition, active = hit call of the paper; conditions: 20 µM;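 also: active when median AUC fell below 0.1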
Where a name gives a salt, the structure may show the parent alone.
measured_parameter: growth AUC normalised to DMSO control

Any idea what growth AUC normalised to DMSO control was measured for CC(=O)O[C@H]1CC[C@@]2(C)C(=CC[C@@H]3[C@@H]2CC[C@]2(C)C(=O)CC[C@@H]32)C1 [Dehydroisoandosterone 3-acetate] ?
0.991 (inactive)

Request: CC(C)C[C@H](CN)CC(=O)O
0.991 (inactive)

Request: C[C@]12CCC(=O)C=C1CC[C@@H]1[C@@H]2C(=O)C[C@]2(C)C(=O)CC[C@@H]12
1.01 (inactive)

Request: O=c1[nH]c2ccccc2n1CCCN1CCC(n2c(=O)[nH]c3cc(Cl)ccc32)CC1
1 (inactive)

Request: C[C@]12CCC(=O)C=C1C=C[C@@H]1[C@@H]2CC[C@@]2(C)[C@H]1CC[C@@]2(O)CCC(=O)O [Canrenoic acid potassium salt]
1.01 (inactive)

Request: OC(c1ccccc1)(c1ccccc1)C1CCNCC1
1.01 (inactive)

Request: Oc1ccc2c3c1O[C@H]1[C@@H](O)CC[C@@]4(O)[C@@H](C2)N(CC2CCC2)CC[C@]314 [Nalbuphine hydrochloride]
0.988 (inactive)

====

test system: Salmonella enterica typhimurium; assay: growth AUC normalised to DMSO control (fraction of control); higher = less growth inhibition, active = hit call of the paper; conditions: 20 µM
Counter-ions that a name gives are not always drawn.
Please provide measured growth AUC normalised to DMSO control for the entries that follow.

Any idea what growth AUC normalised to DMSO control was measured for C=C(C)[C@@H]1[C@H]2OC(=O)[C@@H]1[C@]1(O)C[C@H]3O[C@]34C(=O)O[C@H]2[C@]14C ?
1 (inactive)

Request: CN(C)[C@@H]1C(=O)C(C(N)=O)=C(O)[C@@]2(O)C(=O)C3=C(O)c4c(O)cccc4[C@@](C)(O)[C@H]3[C@H](O)[C@@H]12 [Oxytetracycline dihydrate]
0.00147 (active)

Request: CN1C[C@H](CNC(=O)OCc2ccccc2)C[C@@H]2c3cccc4c3c(cn4C)C[C@H]21
0.979 (inactive)

Request: CN[C@@H]1C[C@@H](c2ccc(Cl)c(Cl)c2)c2ccccc21 [Indatraline hydrochloride]
1.02 (inactive)

Request: C=C1C[C@@H]2[C@H](CC[C@]3(C)C(=O)CC[C@@H]23)[C@@]2(C)C=CC(=O)C=C12
0.985 (inactive)

Request: CO[C@]12C[C@@H](COC(=O)c3cncc(Br)c3)CN(C)[C@@H]1Cc1cn(C)c3cccc2c13
1.01 (inactive)

Request: C#CCN(C)[C@H](C)Cc1ccccc1 [Selegiline hydrochloride]
1.02 (inactive)
